The measurements presented in this section are drawn from patent US11254668B2.

target: TYK2 (Homo sapiens (Human)); assay: JAK Caliper Enzyme Assay at 1 mM ATP, TYK2; assay type: biochemical; details: JAK Caliper enzyme assay
Recorded IC50, one value per entry.

{"molecule": "N#CC[C@]1(n2cc(-c3cc(-c4ccc(O)cc4)cc4nccn34)cn2)C[C@@H](C#N)C1 [Example 468]", "measurement.unit": "nM", "IC50": 127}
{"molecule": "COc1ncc(-c2cc(-c3cnn(C4(CC#N)CN(S(C)(=O)=O)C4)n3)c3cccnc3c2)cn1 [Example 405]", "measurement.unit": "nM", "IC50": 3060}
{"molecule": "CN1C(=O)COc2ccc(-c3cc(-c4cnn([C@]5(CC#N)C[C@@H](C#N)C5)n4)c4cccnc4c3)nc21 [Example 426]", "measurement.unit": "nM", "IC50": 24}

---

Recorded IC50, one value per entry.
target: JAK2 (Homo sapiens (Human), UniProt O60674); test: JAK Caliper Enzyme Assay at 1 mM ATP, JAK2; type: biochemical
Sequence (O60674 849-1124): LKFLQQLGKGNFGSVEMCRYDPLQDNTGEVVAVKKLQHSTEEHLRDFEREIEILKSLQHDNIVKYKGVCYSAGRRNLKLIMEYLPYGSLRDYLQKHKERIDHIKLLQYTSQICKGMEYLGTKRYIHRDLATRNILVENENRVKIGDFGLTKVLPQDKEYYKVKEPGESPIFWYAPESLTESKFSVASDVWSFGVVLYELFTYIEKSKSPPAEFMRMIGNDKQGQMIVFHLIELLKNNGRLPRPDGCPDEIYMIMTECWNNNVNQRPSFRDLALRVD
assay.endpoint: IC50 (nM)

{"compound": "Cn1cc(-c2cc3ncccc3c(-c3ccn([C@]4(CC#N)C[C@H](C#N)C4)n3)n2)c(N)n1", "reading": 10}
{"compound": "CS(=O)(=O)N1CC(CC#N)(n2ccc(-c3nc(-c4cnco4)cc4ncccc34)n2)C1", "reading": 1790}
{"compound": "N#CCC1(n2ccc(-c3nc(-c4ccc(O)c(C(N)=O)n4)cc4ncccc34)n2)CC(C#N)C1 (stereo not shown)", "reading": 929}
{"compound": "N#CC[C@]1(n2ccc(-c3nc(-c4ccc(N)nc4)cc4ncccc34)n2)C[C@H](C#N)C1", "reading": 233}

---

Recorded IC50, one value per entry.
molecular target: JAK2 (Homo sapiens (Human), UniProt O60674); assay: JAK Caliper Enzyme Assay at 1 mM ATP, JAK2; type: biochemical
assay.endpoint: IC50 (nM)

{"molecule": "CS(=O)(=O)N1CC(CC#N)(n2ccc(-c3nc(-c4ccccc4CO)cc4ncccc34)n2)C1", "result.modifier": ">", "reading": 10000}
{"molecule": "N#CC[C@]1(n2ccc(-c3nc(-c4ccc(S(N)(=O)=O)nc4)cc4ncccc34)n2)C[C@H](C#N)C1 [Example 210]", "result.modifier": "=", "reading": 300}
{"molecule": "C[C@]1(C#N)C[C@@](CC#N)(n2ccc(-c3nc(-c4ccnc(N)c4)cc4ncccc34)n2)C1", "result.modifier": "=", "reading": 177}
{"molecule": "Cn1nccc1-c1cc(-c2cnn(C3(CC#N)CN(S(C)(=O)=O)C3)n2)c2cccnc2c1", "result.modifier": ">", "reading": 10000}
{"molecule": "CS(=O)(=O)N1CC(CC#N)(n2ccc(-c3nc(-c4cc(O)cc(F)c4)cc4ncccc34)n2)C1", "result.modifier": ">", "reading": 10000}

---

biological target: JAK1 (Homo sapiens (Human)); assay: JAK Caliper Enzyme Assay at 1 mM ATP, JAK1; format: biochemical
pIC50: −log10 of the molar value.
Recorded pIC50, one value per entry.

{"compound": "N#CCC1(n2ccc(-c3nc(-c4ccc(N)nc4)cc4ncccc34)n2)CN(CC(F)(F)F)C1", "pIC50": 6.02}
{"compound": "Cc1cc(-c2cc3ncccc3c(-c3ccn([C@]4(CC#N)C[C@H](C#N)C4)n3)n2)nn1C", "pIC50": 6.06}
{"compound": "CS(=O)(=O)N1CC(CC#N)(n2ccc(-c3nc(-c4ccc(N)nc4N)cc4ncccc34)n2)C1", "pIC50": 5.95}
{"compound": "Cc1cc(-c2nc(-c3cn[nH]c3)cc3ncccc23)nn1[C@]1(CC#N)C[C@@H](C#N)C1", "pIC50": 6.10}
{"compound": "N#CC[C@]1(n2ccc(-c3nc(-c4cnnc(N)c4)cc4ncccc34)n2)C[C@@H](C#N)C1", "pIC50": 5.89}
{"compound": "CO[C@H]1C[C@](CC#N)(n2ccc(-c3nc(-c4cc(N)[nH]n4)cc4ncccc34)n2)C1", "pIC50": 6.18}
{"compound": "CO[C@H]1C[C@](CC#N)(n2ccc(-c3nc(-c4c[nH]nc4N)cc4ncccc34)n2)C1 [Example 95]", "pIC50": 6.00}
{"compound": "N#CCC1(n2ccc(-c3nc(-c4cc5n(n4)CCNC5)cc4ncccc34)n2)CC(C#N)C1 (centres unmarked)", "pIC50": 6.17}

---

target: TYK2 (Homo sapiens (Human), UniProt P29597); experiment: JAK Caliper Enzyme Assay at 1 mM ATP, TYK2; assay type: biochemical
Sequence (P29597 897-1176): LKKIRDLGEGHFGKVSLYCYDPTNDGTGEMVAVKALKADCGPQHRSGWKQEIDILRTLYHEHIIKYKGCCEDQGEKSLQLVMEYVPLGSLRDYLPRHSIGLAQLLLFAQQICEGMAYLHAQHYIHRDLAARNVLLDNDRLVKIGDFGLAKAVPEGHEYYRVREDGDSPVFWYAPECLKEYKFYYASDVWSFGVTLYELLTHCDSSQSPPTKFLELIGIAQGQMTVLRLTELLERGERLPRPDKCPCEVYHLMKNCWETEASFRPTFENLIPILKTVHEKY
pIC50: −log10 of the molar value.

{"smiles.text": "N#CC[C@H]1C[C@@](CC#N)(n2ccc(-c3nc(-c4cn[nH]c4)cc4ncccc34)n2)C1", "pIC50": 7.85}
{"smiles.text": "Cn1nc(-c2cc3ncccc3c(-c3ccn([C@]4(CC#N)C[C@@H](C#N)C4)n3)n2)cc1N", "pIC50": 7.74}
{"smiles.text": "N#CC[C@]1(n2ccc(-c3nc(-c4cc(CO)no4)cc4ncccc34)n2)C[C@@H](C#N)C1", "pIC50": 7.59}
{"smiles.text": "N#CC[C@]1(n2ncc(-c3cc(-c4cc(C(N)=O)ccn4)cc4ncccc34)n2)C[C@@H](C#N)C1", "pIC50": 5.14}
{"smiles.text": "CS(=O)(=O)N1CC(CC#N)(n2cc(-c3cc(-c4cn[nH]c4)cc4ncccc34)cn2)C1", "pIC50": 6.71}
{"smiles.text": "N#CC[C@]1(n2ccc(-c3nc(-c4ccc(N)c(C(N)=O)n4)cc4ncccc34)n2)C[C@H](C#N)C1", "pIC50": 7.35}
{"smiles.text": "Cn1ccc(-c2cc(-c3cnn(C4(CC#N)CN(S(C)(=O)=O)C4)n3)c3cccnc3c2)n1", "pIC50": 7.60}
{"smiles.text": "CCN1CC(CC#N)(n2ccc(-c3nc(-c4ccc(O)nc4)cc4ncccc34)n2)C1", "pIC50": 6.66}
{"smiles.text": "Cc1cc(-c2cc3ncccc3c(-c3ccn([C@]4(CC#N)C[C@H](C#N)C4)n3)n2)n[nH]1", "pIC50": 8.15}
{"smiles.text": "CC(=O)N1CC2(C1)CC(CC#N)(n1ccc(-c3nc(-c4cc[nH]n4)cc4ncccc34)n1)C2", "pIC50": 5.40}
{"smiles.text": "Cc1cc(-c2cc3ncccc3c(-c3ccn([C@]4(CC#N)C[C@@](C)(C#N)C4)n3)n2)n[nH]1", "pIC50": 6.06}

---

Recorded pIC50, one value per entry.
biological target: JAK1 (Homo sapiens (Human), UniProt P23458); assay: JAK Caliper Enzyme Assay at 1 mM ATP, JAK1; format: biochemical
Sequence (P23458 875-1153): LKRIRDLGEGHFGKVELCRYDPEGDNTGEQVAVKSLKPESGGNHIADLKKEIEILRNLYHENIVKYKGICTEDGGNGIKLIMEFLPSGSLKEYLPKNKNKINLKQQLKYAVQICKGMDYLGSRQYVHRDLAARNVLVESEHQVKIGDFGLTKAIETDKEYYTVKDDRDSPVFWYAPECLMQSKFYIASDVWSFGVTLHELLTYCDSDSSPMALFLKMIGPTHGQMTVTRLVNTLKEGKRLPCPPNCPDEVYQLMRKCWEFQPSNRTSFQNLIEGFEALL
pIC50: −log10 of the molar value.

{"smiles.text": "CC(=O)Nc1cc(-c2cc3ncccc3c(-c3ccn(C4(CC#N)CN(S(C)(=O)=O)C4)n3)n2)cnc1C", "result.modifier": "=", "pIC50": 5.36}
{"smiles.text": "N#CCC1(n2ccc(-c3nc(-c4cn[nH]c4)cc4ncccc34)n2)CN(CC(F)(F)F)C1", "result.modifier": "=", "pIC50": 6.66}
{"smiles.text": "N#CC[C@]1(n2ncc(-c3cc(-c4nc(CO)cs4)cc4ncccc34)n2)C[C@H](C#N)C1", "result.modifier": "=", "pIC50": 5.49}
{"smiles.text": "N#CC[C@]1(n2ncc(-c3cc(-c4cnn(CCO)c4)cc4ncccc34)n2)C[C@@H](C#N)C1", "result.modifier": "=", "pIC50": 6.58}
{"smiles.text": "N#CCC1(n2ccc(-c3nc(-c4ccnc(N)c4)cc4ncccc34)n2)CN(CC(F)(F)F)C1", "result.modifier": "=", "pIC50": 6.18}
{"smiles.text": "CCOC(=O)Nc1cncc(-c2cc3ncccc3c(-c3ccn(C4(CC#N)CN(S(C)(=O)=O)C4)n3)n2)c1", "result.modifier": "<", "pIC50": 5.00}
{"smiles.text": "Cn1cc(-c2cc(-c3cn(C4(CC#N)CN(S(C)(=O)=O)C4)nn3)c3cccnc3c2)cn1", "result.modifier": "=", "pIC50": 5.87}
{"smiles.text": "COc1ccc(-c2cc3ncccc3c(-c3ccn(C4(CC#N)CN(CC(F)(F)F)C4)n3)n2)cn1", "result.modifier": "=", "pIC50": 5.57}
{"smiles.text": "CS(=O)(=O)N1CC(CC#N)(n2cc(-c3cc(-c4ccc(=O)[nH]c4)cc4ncccc34)nn2)C1", "result.modifier": "=", "pIC50": 5.11}
{"smiles.text": "COc1ncccc1-c1cc2ncccc2c(-c2ccn(C3(CC#N)CN(S(C)(=O)=O)C3)n2)n1", "result.modifier": "<", "pIC50": 5.00}
{"smiles.text": "CS(=O)(=O)N1CC(CC#N)(n2ccc(-c3nc(-c4cnc5c(c4)NCCN5)cc4ncccc34)n2)C1", "result.modifier": "=", "pIC50": 5.84}
{"smiles.text": "N#CCN1CC(CC#N)(n2ccc(-c3nc(-c4cnn(C5COC5)c4)cc4ncccc34)n2)C1", "result.modifier": "=", "pIC50": 6.28}
{"smiles.text": "Cn1cc(-c2cc(-c3cnn(C4(CC#N)CN(S(C)(=O)=O)C4)n3)c3cccnc3c2)cn1", "result.modifier": "=", "pIC50": 5.55}
{"smiles.text": "CS(=O)(=O)N1CC(CC#N)(n2ccc(-c3nc(-c4cnn5ccccc45)cc4ncccc34)n2)C1", "result.modifier": "=", "pIC50": 6.39}
{"smiles.text": "CO[C@H]1C[C@@](CC#N)(n2ccc(-c3nc(-c4cnn(C)c4)cc4ncccc34)n2)C1", "result.modifier": "=", "pIC50": 5.39}
{"smiles.text": "Cc1cc(-c2cc3ncccc3c(-c3ccn([C@]4(CC#N)C[C@](C)(C#N)C4)n3)n2)n[nH]1", "result.modifier": "=", "pIC50": 6.13}
{"smiles.text": "N#CC[C@]1(n2ccc(-c3nc(-c4cn[nH]c4CO)cc4ncccc34)n2)C[C@@H](C#N)C1", "result.modifier": "=", "pIC50": 7.20}
{"smiles.text": "Cc1nc(-c2cc3ncccc3c(-c3ccn(C4(CC#N)CN(CC(F)(F)F)C4)n3)n2)cn1C", "result.modifier": "<", "pIC50": 5.00}
{"smiles.text": "Cn1cc(-c2cc3ncccc3c(-c3ccn(C4(CC#N)CN(S(C)(=O)=O)C4)n3)n2)cn1", "result.modifier": "=", "pIC50": 5.86}
{"smiles.text": "CO[C@H]1C[C@@](CC#N)(n2ccc(-c3nc(-c4cnn(CCO)c4)cc4ncccc34)n2)C1", "result.modifier": "=", "pIC50": 5.45}
{"smiles.text": "N#CC[C@]1(n2ccc(-c3nc(-c4cc[nH]n4)cc4ncccc34)n2)C[C@@H](C(N)=O)C1", "result.modifier": "=", "pIC50": 5.44}
{"smiles.text": "CS(=O)(=O)N1CC(CC#N)(n2ccc(-c3nc(-c4ccnc(O)c4)cc4ncccc34)n2)C1", "result.modifier": "=", "pIC50": 5.31}
